molecular target: ATP-dependent translocase ABCB1 (Homo sapiens); assay: TP_TRANSPORTER: inhibition of Verapamil binding in membranes from Vinblastine-induced Caco-2 cells; type: functional, cell membranes, Membrane; settings: read-out: Ki1
Sequence (P08183 whole entry): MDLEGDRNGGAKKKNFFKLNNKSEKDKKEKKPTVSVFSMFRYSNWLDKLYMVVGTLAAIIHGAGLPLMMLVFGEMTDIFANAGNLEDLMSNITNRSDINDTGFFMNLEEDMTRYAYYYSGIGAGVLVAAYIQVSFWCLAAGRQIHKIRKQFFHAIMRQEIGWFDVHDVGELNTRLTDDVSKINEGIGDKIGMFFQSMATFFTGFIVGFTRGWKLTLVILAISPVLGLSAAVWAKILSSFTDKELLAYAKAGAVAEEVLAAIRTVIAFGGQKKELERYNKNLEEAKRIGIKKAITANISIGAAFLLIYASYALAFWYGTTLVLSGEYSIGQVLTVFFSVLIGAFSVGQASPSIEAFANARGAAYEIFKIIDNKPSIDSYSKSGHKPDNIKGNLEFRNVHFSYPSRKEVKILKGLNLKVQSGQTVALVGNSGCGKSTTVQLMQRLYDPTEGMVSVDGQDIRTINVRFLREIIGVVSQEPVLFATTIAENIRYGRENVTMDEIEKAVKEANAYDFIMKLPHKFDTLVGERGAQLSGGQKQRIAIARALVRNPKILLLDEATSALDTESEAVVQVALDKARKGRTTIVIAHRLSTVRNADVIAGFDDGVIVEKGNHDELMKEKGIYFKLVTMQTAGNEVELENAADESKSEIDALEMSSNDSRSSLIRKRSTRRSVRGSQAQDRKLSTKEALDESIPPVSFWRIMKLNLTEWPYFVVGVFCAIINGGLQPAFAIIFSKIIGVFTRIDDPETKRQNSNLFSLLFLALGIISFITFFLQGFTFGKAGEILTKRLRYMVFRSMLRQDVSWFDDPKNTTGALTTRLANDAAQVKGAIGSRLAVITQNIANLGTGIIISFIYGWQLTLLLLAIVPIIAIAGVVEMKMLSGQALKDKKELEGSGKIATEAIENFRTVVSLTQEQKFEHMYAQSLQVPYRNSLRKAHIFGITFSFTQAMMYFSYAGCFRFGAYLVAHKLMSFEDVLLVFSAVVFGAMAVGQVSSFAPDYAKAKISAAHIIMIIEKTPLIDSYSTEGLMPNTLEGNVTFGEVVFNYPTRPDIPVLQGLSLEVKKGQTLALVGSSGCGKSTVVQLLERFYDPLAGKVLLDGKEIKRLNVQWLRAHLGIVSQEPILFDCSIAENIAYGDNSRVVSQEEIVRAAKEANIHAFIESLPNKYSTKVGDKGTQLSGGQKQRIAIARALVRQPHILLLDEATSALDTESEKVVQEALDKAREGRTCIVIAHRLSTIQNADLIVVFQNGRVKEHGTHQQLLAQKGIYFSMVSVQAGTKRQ
OUTCOME MEASURE: Ki (nM)

[I] CC[C@]1(O)C[C@H]2CN(CCc3c([nH]c4ccccc34)[C@@](C(=O)OC)(c3cc4c(cc3OC)N(C=O)[C@H]3[C@@](O)(C(=O)OC)[C@H](OC(C)=O)[C@]5(CC)C=CCN6CC[C@]43[C@@H]65)C2)C1
[II] COC(=O)c1ccccc1-c1c2ccc(=N)cc-2oc2cc(N)ccc12
Input line: Form: Entry with minimum Ki (choose one): I / II Reply with the label of the item you choose.
Output line: II
